Sourced from ChEMBL document CHEMBL3885861

- Organism: Rattus norvegicus
- protocol.notes: Open TG-GATES - Regimen: Single
- Assay type: toxicity, organism-based, Sprague-Dawley
- Set-up: regimen Single, gender Male, age 6 weeks
- condition.context: in vivo, po, 1000 mg/kg, 9 h, tissue Kidney, route gavage, dose level High

compound: Cc1nnc2n1-c1ccc(Cl)cc1C(c1ccccc1Cl)=NC2 [TRIAZOLAM]
KIDNEY_R / g: 0.9
--
compound: O=C(OC[C@H]1O[C@@H](OC(=O)c2cc(O)c(O)c(OC(=O)c3cc(O)c(O)c(O)c3)c2)[C@H](OC(=O)c2cc(O)c(O)c(OC(=O)c3cc(O)c(O)c(O)c3)c2)[C@@H](OC(=O)c2cc(O)c(O)c(OC(=O)c3cc(O)c(O)c(O)c3)c2)[C@@H]1OC(=O)c1cc(O)c(O)c(OC(=O)c2cc(O)c(O)c(O)c2)c1)c1cc(O)c(O)c(OC(=O)c2cc(O)c(O)c(O)c2)c1 [TANNIC ACID]
KIDNEY_R / g: 0.8
--
compound: CN/C(=N/CCSCc1nc[nH]c1C)NC#N [CIMETIDINE]
KIDNEY_R / g: 0.9
--
compound: COC(=O)C1=C(C)NC(C)=C(C(=O)OC)C1c1ccccc1[N+](=O)[O-] [NIFEDIPINE]
KIDNEY_R / g: 0.9
--
compound: CNC(=C[N+](=O)[O-])NCCSCc1ccc(CN(C)C)o1 [RANITIDINE]
KIDNEY_R / g: 1

* * *

This listing pairs molecules with measured TC.
- Species on record: Rattus norvegicus
- protocol.notes: Open TG-GATES - Regimen: Daily Repeat
- Type: toxicity, organism-based, Sprague-Dawley
- Set-up: regimen Daily Repeat, gender Male, age 6 weeks
- condition.context: in vivo, po, 0 mg/kg, […], tissue Plasma, route gavage, dose level Control, time 7 day

molecule: CN1C(=O)CCS(=O)(=O)C1c1ccc(Cl)cc1 (centres undefined)
TC: 82.6 mg/dL

molecule: CN/C(=N/CCSCc1nc[nH]c1C)NC#N
TC: 73.6 mg/dL

molecule: CNC(=C[N+](=O)[O-])NCCSCc1ccc(CN(C)C)o1
TC: 73.2 mg/dL

molecule: COC(=O)C1=C(C)NC(C)=C(C(=O)OC)C1c1ccccc1[N+](=O)[O-]
TC: 82.4 mg/dL

molecule: O=C(OC[C@H]1O[C@@H](OC(=O)c2cc(O)c(O)c(OC(=O)c3cc(O)c(O)c(O)c3)c2)[C@H](OC(=O)c2cc(O)c(O)c(OC(=O)c3cc(O)c(O)c(O)c3)c2)[C@@H](OC(=O)c2cc(O)c(O)c(OC(=O)c3cc(O)c(O)c(O)c3)c2)[C@@H]1OC(=O)c1cc(O)c(O)c(OC(=O)c2cc(O)c(O)c(O)c2)c1)c1cc(O)c(O)c(OC(=O)c2cc(O)c(O)c(O)c2)c1
TC: 85.4 mg/dL

molecule: CCCc1cc(=O)[nH]c(=S)[nH]1
TC: 77 mg/dL

molecule: Nc1c2c(nc3ccccc13)CCCC2
TC: 77.6 mg/dL

molecule: CC(C)NNC(=O)c1ccncc1
TC: 77.4 mg/dL

molecule: NC1=NC(=O)C(c2ccccc2)O1 (centres undefined)
TC: 84.2 mg/dL

* * *

- Species on record: Rattus norvegicus
- protocol.notes: Open TG-GATES - Regimen: Single
- Format: toxicity, organism-based, Sprague-Dawley
- Set-up: regimen Single, gender Male, age 6 weeks
- condition.context: in vivo, po, 1000 mg/kg, 6 h, tissue Plasma, route gavage, dose level High
Label 1.0 when ALP < 1000 IU/L; otherwise 0.0.

structure.string: Cc1nnc2n1-c1ccc(Cl)cc1C(c1ccccc1Cl)=NC2
group.label: 0.0

structure.string: O=C(OC[C@H]1O[C@@H](OC(=O)c2cc(O)c(O)c(OC(=O)c3cc(O)c(O)c(O)c3)c2)[C@H](OC(=O)c2cc(O)c(O)c(OC(=O)c3cc(O)c(O)c(O)c3)c2)[C@@H](OC(=O)c2cc(O)c(O)c(OC(=O)c3cc(O)c(O)c(O)c3)c2)[C@@H]1OC(=O)c1cc(O)c(O)c(OC(=O)c2cc(O)c(O)c(O)c2)c1)c1cc(O)c(O)c(OC(=O)c2cc(O)c(O)c(O)c2)c1
group.label: 1.0

structure.string: CN/C(=N/CCSCc1nc[nH]c1C)NC#N
group.label: 1.0

structure.string: CNC(=C[N+](=O)[O-])NCCSCc1ccc(CN(C)C)o1
group.label: 1.0

structure.string: COC(=O)C1=C(C)NC(C)=C(C(=O)OC)C1c1ccccc1[N+](=O)[O-]
group.label: 0.0

* * *

This listing pairs molecules with measured MCHC.
- Species on record: Rattus norvegicus
- protocol.notes: Open TG-GATES - Regimen: Daily Repeat
- Type: toxicity, organism-based, Sprague-Dawley
- Design: regimen Daily Repeat, gender Male, age 6 weeks
- condition.context: in vivo, po, 300 mg/kg, […], tissue Blood, route gavage, dose level Middle, time 7 day

structure.string: COC(=O)C1=C(C)NC(C)=C(C(=O)OC)C1c1ccccc1[N+](=O)[O-]
MCHC [%]: 32.6
//
structure.string: Cc1nnc2n1-c1ccc(Cl)cc1C(c1ccccc1Cl)=NC2
MCHC [%]: 33.6
//
structure.string: CN/C(=N/CCSCc1nc[nH]c1C)NC#N
MCHC [%]: 33.1

* * *

- Species on record: Rattus norvegicus
- protocol.notes: Open TG-GATES - Regimen: Daily Repeat
- Type: toxicity, organism-based, Sprague-Dawley
- Design: regimen Daily Repeat, gender Male, age 6 weeks
- condition.context: in vivo, po, 100 mg/kg, […], tissue Plasma, route gavage, dose level Low, time 28 day

compound: Cc1nnc2n1-c1ccc(Cl)cc1C(c1ccccc1Cl)=NC2 [TRIAZOLAM]
ALT (IU/L): 42
--
compound: O=C(OC[C@H]1O[C@@H](OC(=O)c2cc(O)c(O)c(OC(=O)c3cc(O)c(O)c(O)c3)c2)[C@H](OC(=O)c2cc(O)c(O)c(OC(=O)c3cc(O)c(O)c(O)c3)c2)[C@@H](OC(=O)c2cc(O)c(O)c(OC(=O)c3cc(O)c(O)c(O)c3)c2)[C@@H]1OC(=O)c1cc(O)c(O)c(OC(=O)c2cc(O)c(O)c(O)c2)c1)c1cc(O)c(O)c(OC(=O)c2cc(O)c(O)c(O)c2)c1 [TANNIC ACID]
ALT (IU/L): 34
--
compound: CCOc1ccc(NC(C)=O)cc1 [PHENACETIN]
ALT (IU/L): 35.8
--
compound: CN/C(=N/CCSCc1nc[nH]c1C)NC#N [CIMETIDINE]
ALT (IU/L): 35.4
--
compound: CNC(=C[N+](=O)[O-])NCCSCc1ccc(CN(C)C)o1 [RANITIDINE]
ALT (IU/L): 32.8
--
compound: COC(=O)C1=C(C)NC(C)=C(C(=O)OC)C1c1ccccc1[N+](=O)[O-] [NIFEDIPINE]
ALT (IU/L): 39.6

* * *

- Species on record: Rattus norvegicus
- protocol.notes: Open TG-GATES - Regimen: Single
- Type: toxicity, organism-based, Sprague-Dawley
- Parameters: regimen Single, gender Male, age 6 weeks
- condition.context: in vivo, po, 100 mg/kg, 9 h, tissue Blood, route gavage, dose level Low
This listing pairs molecules with measured WBC.

molecule: CNC(=C[N+](=O)[O-])NCCSCc1ccc(CN(C)C)o1 [RANITIDINE]
units.symbol: x10_2/uL
WBC: 81.2
//
molecule: Cc1nnc2n1-c1ccc(Cl)cc1C(c1ccccc1Cl)=NC2 [TRIAZOLAM]
units.symbol: x10_2/uL
WBC: 68
//
molecule: COC(=O)C1=C(C)NC(C)=C(C(=O)OC)C1c1ccccc1[N+](=O)[O-] [NIFEDIPINE]
units.symbol: x10_2/uL
WBC: 116.7
//
molecule: CN/C(=N/CCSCc1nc[nH]c1C)NC#N [CIMETIDINE]
units.symbol: x10_2/uL
WBC: 88
//
molecule: O=C(OC[C@H]1O[C@@H](OC(=O)c2cc(O)c(O)c(OC(=O)c3cc(O)c(O)c(O)c3)c2)[C@H](OC(=O)c2cc(O)c(O)c(OC(=O)c3cc(O)c(O)c(O)c3)c2)[C@@H](OC(=O)c2cc(O)c(O)c(OC(=O)c3cc(O)c(O)c(O)c3)c2)[C@@H]1OC(=O)c1cc(O)c(O)c(OC(=O)c2cc(O)c(O)c(O)c2)c1)c1cc(O)c(O)c(OC(=O)c2cc(O)c(O)c(O)c2)c1 [TANNIC ACID]
units.symbol: x10_2/uL
WBC: 105.1

* * *

- Species on record: Rattus norvegicus
- protocol.notes: Open TG-GATES - Regimen: Daily Repeat
- Assay type: toxicity, organism-based, Sprague-Dawley
- Set-up: regimen Daily Repeat, gender Male, age 6 weeks
- condition.context: in vivo, po, 1000 mg/kg, 72 h, tissue Blood, route gavage, dose level High, time 3 day
This listing pairs compounds with measured MCH.
readout.label: MCH

structure.string: CNC(=C[N+](=O)[O-])NCCSCc1ccc(CN(C)C)o1
readout.label: MCH
result: 21.5 pg

structure.string: CN/C(=N/CCSCc1nc[nH]c1C)NC#N
readout.label: MCH
result: 21.1 pg

structure.string: CCOc1ccc(NC(C)=O)cc1
readout.label: MCH
result: 19.9 pg

structure.string: O=C(OC[C@H]1O[C@@H](OC(=O)c2cc(O)c(O)c(OC(=O)c3cc(O)c(O)c(O)c3)c2)[C@H](OC(=O)c2cc(O)c(O)c(OC(=O)c3cc(O)c(O)c(O)c3)c2)[C@@H](OC(=O)c2cc(O)c(O)c(OC(=O)c3cc(O)c(O)c(O)c3)c2)[C@@H]1OC(=O)c1cc(O)c(O)c(OC(=O)c2cc(O)c(O)c(O)c2)c1)c1cc(O)c(O)c(OC(=O)c2cc(O)c(O)c(O)c2)c1
readout.label: MCH
result: 21.3 pg

structure.string: Cc1nnc2n1-c1ccc(Cl)cc1C(c1ccccc1Cl)=NC2
readout.label: MCH
result: 21.3 pg

structure.string: COC(=O)C1=C(C)NC(C)=C(C(=O)OC)C1c1ccccc1[N+](=O)[O-]
readout.label: MCH
result: 20.5 pg
